Tested on: MCF10A
ASSAY_EXPLANATION: one-nucleolus phenotype percent effect (relative to siNT 0% and siNOL11 100%); higher = more cells with one nucleolus (ribosome biogenesis inhibition)
CONDITION_PARAMETERS: 20 nM; 72 h
Entries and their one-nucleolus phenotype percent effect values follow.
Number in %, nothing else.

Example entries begin here.
• GAAAAUGAUGAGUAGUGACUGAUG [hsa-miR-3662] = -17.5
• CUGAACUAGAGAUUGGGCCCA [hsa-miR-7158-3p] = 16
• AGUUUUGCAGGUUUGCAUCCAGC [hsa-miR-19b-1-5p] = 76.9

Next sequence, one-nucleolus phenotype percent effect to be filled in.
Query: # query: one-nucleolus phenotype percent effect of entry UGACUAACUCCCACUCUACAG [hsa-miR-6831-3p]
Response: -28.1

====

Test system: MCF10A
ASSAY_EXPLANATION: percent viability (nuclei count relative to siNT); higher = more viable cells
CONDITION_PARAMETERS: 20 nM; 72 h
Classify: 1 (yes) when percent viability is strictly less than 80%; 0 (no) when percent viability is not.

See these solved cases before continuing.
* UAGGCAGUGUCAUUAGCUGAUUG [hsa-miR-34b-5p] | 1 (yes)
* AGAGUCUUGUGAUGUCUUGC [hsa-miR-924] | 1 (yes)
* UCUGAGUUCCUGGAGCCUGGUCU [hsa-miR-4682] | 0 (no)
* CUGGGGUUCUGAGACAGACAGU [hsa-miR-3170] | 1 (yes)
* AAAAGUAACUGCGGUUUUUGCCU [hsa-miR-548w] | 1 (yes)
* UCCCCCAGGUGUGAUUCUGAUUU [hsa-miR-361-3p] | 1 (yes)

Query: Please check: percent viability for ACUCAUUCUCCUCUGUCCAG [hsa-miR-6758-3p] , strictly under 80% or not?
Response: 0 (no)

Query: A record lists UCUCUUCAUCUACCCCCCAG [hsa-miR-6515-3p] . Is its percent viability below 80%?
Response: 0 (no)

Query: Answer whether the sequence AGGAGCAGUGCCGGCCAAGGCGCC [hsa-miR-6081] has percent viability strictly less than 80%
Response: 1 (yes)

====

Catalogue of sequences with associated one-nucleolus phenotype percent effect
Test system: MCF10A
ASSAY_EXPLANATION: one-nucleolus phenotype percent effect (relative to siNT 0% and siNOL11 100%); higher = more cells with one nucleolus (ribosome biogenesis inhibition)
CONDITION_PARAMETERS: 20 nM; 72 h
Give the value in % but do not write % after it.

Some sequences with known one-nucleolus phenotype percent effect results, for comparison:
* AGGAGGACAAGUUGUGGGAU [hsa-miR-7154-3p] | 39.7
* GACACAUGACCAUAAAUGCUAA [hsa-miR-4643] | -11.7
* UGAGCCCCUGUGCCGCCCCCAG [hsa-miR-1225-3p] | -16.7
* UCAGUUCCAGGCCAACCAGGCU [hsa-miR-584-3p] | 19.6
* ACUGACAGGAGAGCAUUUUGA [hsa-miR-3660] | -1.95
* UUCAACGGGUAUUUAUUGAGCA [hsa-miR-95] | -0.724
* GCUCAGGGAUGAUAACUGUGCUGAGA [hsa-miR-4518] | -10.2

Turning now to a further record.
Query: Item under review: UUCCUGGGCUUCUCCUCUGUAG [hsa-miR-6783-3p] . Reported one-nucleolus phenotype percent effect?
Response: -1.45

====

System: MCF10A
ASSAY_EXPLANATION: one-nucleolus phenotype percent effect (relative to siNT 0% and siNOL11 100%); higher = more cells with one nucleolus (ribosome biogenesis inhibition)
CONDITION_PARAMETERS: 20 nM; 72 h
Measured one-nucleolus phenotype percent effect accompanies every entry in the list below.
The figure you give is taken to be in %; do not add the unit.

• GUGGGUGCUGGUGGGAGCCGUG [hsa-miR-6741-5p] = 6.09
• UGGCGGGGGUAGAGCUGGCUGC [hsa-miR-6787-5p] = 30
• ACCGCCUGCCCAGUGA [hsa-miR-4485-5p] = -16.3
• CCGCCUUCUCUCCUCCCCCAG [hsa-miR-6880-3p] = -31.4

Query: If you can, please state the reported one-nucleolus phenotype percent effect value of UGUGACUGGUUGACCAGAGGGG [hsa-miR-134] .
Response: 31.9

====

# one-nucleolus phenotype percent effect annotations
Test system: MCF10A
ASSAY_EXPLANATION: one-nucleolus phenotype percent effect (relative to siNT 0% and siNOL11 100%); higher = more cells with one nucleolus (ribosome biogenesis inhibition)
CONDITION_PARAMETERS: 20 nM; 72 h
Give the quantity in %, number only.

* CCACCGGGGGAUGAAUGUCAC [hsa-miR-181d-3p] | 24.4
* UCCCAGGGUCUGGUCAGAGUUG [hsa-miR-6764-5p] | 29.5

Query: Look up one-nucleolus phenotype percent effect: CUGGGACAGGAGGAGGAGGCAG [hsa-miR-4298]
Response: -17.4

Query: Please give the measured one-nucleolus phenotype percent effect for this sequence: CGCAGACAAUGCCUACUGGCCUA [hsa-miR-3166]
Response: 6.38

Query: one-nucleolus phenotype percent effect for GCAGGGACAGCAAAGGGGUGC [hsa-miR-211-3p] ?
Response: 9.24

Query: If you can, please state the reported one-nucleolus phenotype percent effect value of AAGAGAGGAGCAGUGGUGCUGUGG [hsa-miR-6856-5p] .
Response: 0.793

Query: What one-nucleolus phenotype percent effect value was documented for this sequence, CAAAAACCGGCAAUUACUUUUG [hsa-miR-548ac] ?
Response: -15.1

Query: Which value of one-nucleolus phenotype percent effect has been reported for AAAAGUACUUGCGGAUUUUGCU [hsa-miR-548k] in the records?
Response: -15.1

Query: Tell me the measured one-nucleolus phenotype percent effect of ACUGGGCAGGGCUGUGGUGAGU [hsa-miR-6860] , please.
Response: -5.92

====

Tested on: MCF10A
ASSAY_EXPLANATION: one-nucleolus phenotype percent effect (relative to siNT 0% and siNOL11 100%); higher = more cells with one nucleolus (ribosome biogenesis inhibition)
CONDITION_PARAMETERS: 20 nM; 72 h
MEASURED_PROPERTY: one-nucleolus phenotype percent effect (%)
# number only, unit % dropped from output

* AGGAGGAUGGAGAGCUGGGCCAGA [hsa-miR-6894-5p] | 22.2
* UAUAGAGAGCAGGAAGAUUAAUGU [hsa-miR-3976] | -15.3
* UCCAGGCAGGAGCCGGACUGGA [hsa-miR-4673] | -17.9
* AAGUCCCACUAAUGCCAGC [hsa-miR-5588-3p] | 6.67
* UAGCAAGAGAACCAUUACCAUU [hsa-miR-451b] | -10.8

Query: Short answer please: one-nucleolus phenotype percent effect, MCF10A, entry AUCCCCAGAUACAAUGGACAA [hsa-miR-2355-5p]
Response: 1.32

Query: Form field: one-nucleolus phenotype percent effect recorded for CAGGGCCUCACUGUAUCGCCCA [hsa-miR-4512] with MCF10A (enter value)
Response: 18.5

Query: Find the measured one-nucleolus phenotype percent effect: item CUGGGAGAAGAGUGGUGAAGA [hsa-miR-6788-5p] , target or system MCF10A.
Response: 10

Query: What reported one-nucleolus phenotype percent effect corresponds to CCUGUGGGCCACCUAGUCACCAA [hsa-miR-134-3p] on MCF10A?
Response: 8.84

Query: Requested read-out one-nucleolus phenotype percent effect, target or system MCF10A, entry UCCUAAAUCUGAAAGUCCAAAA [hsa-miR-5009-3p]
Response: -25.9

Query: Query one-nucleolus phenotype percent effect on MCF10A for UAGUCCCUUCCUUGAAGCGGUC [hsa-miR-2114-5p]
Response: 43.8

Query: Form field - read-out: one-nucleolus phenotype percent effect; system: MCF10A; submitted item: CAGGGCUCAGGGAUUGGAUGGAG [hsa-miR-5088]
Response: -7.65

Query: Form field - read-out: one-nucleolus phenotype percent effect; system: MCF10A; submitted item: GUGUGGCCGGCAGGCGGGUGG [hsa-miR-7108-5p]
Response: -12.6

Query: Which measured one-nucleolus phenotype percent effect belongs to AGAUCGACCGUGUUAUAUUCGC [hsa-miR-369-5p] , tested on MCF10A?
Response: -0.708

Query: Entry GGUGGGGCAAUGGGAUCAGGU [hsa-miR-3151] , system MCF10A: what one-nucleolus phenotype percent effect was measured?
Response: -3.87

Query: Query for MCF10A: what one-nucleolus phenotype percent effect does the record show for UCAGGUGUGGAAACUGAGGCAG [hsa-miR-3934-5p] ?
Response: 10.5

Query: Record CCCUGUUCUAUGCCCUGAGGGA [hsa-miR-1266-3p] : what is its one-nucleolus phenotype percent effect with MCF10A?
Response: -19.3

Query: one-nucleolus phenotype percent effect of UAGGGAUGGGAGGCCAGGAUGA [hsa-miR-6757-5p] on MCF10A?
Response: 3.26

Query: Can you look up one-nucleolus phenotype percent effect on MCF10A for UACCCUGUAGAUCCGAAUUUGUG [hsa-miR-10a-5p] ?
Response: 19.4

Query: Hello, I am looking for reported one-nucleolus phenotype percent effect with MCF10A for ACCUGAGGUUGUGCAUUUCUAA [hsa-miR-544b] . Could you help?
Response: 20.9

Recorded values, source the supplement of paper PMC10899765.
